- EXPERIMENT DESCRIPTION: chemical genetic growth profiling, strain panel (AID 1159580);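 further: tested at 20 µM; growth read once vehicle control cultures reached saturation at 30 °C; 1 = growth at the plate median or of vehicle wells; lower values mean less growth of the strain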
- PARTICULARS: S. cerevisiae deletion strains, growth OD, locus YLR262C, strain YPT6
Among all 5,500 compounds or so, about 2,000 (36%) were called active. Not shown: some 18% with an inconclusive outcome. No stated cut-off is given here; in the data, active means normalized growth mostly below about 0.91 (no sharp cut-off); inconclusive means no clear call, values can overlap the other calls; inactive means mostly above about 0.92. Some of the results follow.
Possible outcomes: true (1) = active, false (0) = inactive

1) COc1ccc(/C=C/c2cc(O)cc(O[C@@H]3O[C@H](CO)[C@@H](O)[C@H](O)[C@H]3O)c2)cc1O    false (0)
2) CC1=CC(=O)CC(C)(C)C1(O)/C=C/C(C)=C\C(=O)O (stereo not drawn)    false (0)
3) CCC(CCC(C)C1CCC2C3CC=C4C[C@@H](OC(C)=O)CC[C@]4(C)C3CC[C@]12C)C(C)C (stereo partly drawn)    false (0)
4) Cc1ccc(CSC(=N)N)cc1    false (0)
5) Oc1cc(O)cc(/C=C/c2ccccc2)c1    false (0)
6) C[C@@H]1C[C@@H]([C@H](O)CC2CC(=O)NC(=O)C2)C(=O)[C@@H](C)C1    true (1)
7) COC(=O)c1ccc(S(=O)(=O)NCc2ccccc2)n1C    false (0)
8) COP(=S)(OC)Oc1ccc(SC)c(C)c1    false (0)
9) CC(=O)O[C@H]1CC[C@@]2(C)C(=CCC3C2CC[C@]2(C)C(=O)CCC32)C1 (stereo partly drawn)    true (1)
10) COc1ccc(/C=C/c2cc(O)cc(O)c2)cc1    false (0)
11) O=c1ccn([C@@H]2O[C@H](COP(=O)(O)OP(=O)(O)OP(=O)(O)O)[C@@H](O)[C@H]2O)c(=O)[nH]1    false (0)
12) O=C(O)c1cc(=O)c2c(OCC(O)COc3cccc4oc(C(=O)O)cc(=O)c34)cccc2o1    false (0)
13) O=C(O)CCNC(=S)Nc1cccc(C(F)(F)F)c1    false (0)
14) CC12CCCC(O)(C1)C1CC(C)(C)C1CC2 (stereo not drawn)    false (0)
15) O=C(O)P(=O)(O)O    false (0)
16) O=C1O[C@@H](CO)[C@H](O)[C@@H](O)[C@@H]1O    false (0)
17) CC(=O)O[C@H]1CC[C@@]2(C)C(=CCC3C2CC[C@@]2(C)C3CC[C@@H]2C(C)CCCC(C)C)C1 (stereo partly drawn)    false (0)
18) NC(=O)c1cc[n+](CC2=C(C(=O)O)N3C(=O)C(NC(=O)C(c4ccccc4)S(=O)(=O)[O-])C3SC2)cc1 (stereo not drawn)    false (0)
19) O=C1CC(c2ccccc2)=NO1    false (0)
20) O=C(O)CCS(=O)(=O)/C=C/c1ccccc1    false (0)
21) C/C=C/c1ccc(OC)cc1    false (0)
22) CC[C@@H]1[C@@H](O)N2C3C[C@H]1C1C(O)[C@]4(C[C@@H]12)c1ccccc1N(C)[C@@H]34 (stereo partly drawn)    false (0)
23) COc1cc(O)cc(/C=C/c2ccccc2)c1    true (1)

====

Listed here: items and their measured normalized growth.
- EXPERIMENT DESCRIPTION: chemical genetic growth profiling, strain panel (AID 1159580);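 further: tested at 20 µM; growth read once vehicle control cultures reached saturation at 30 °C; 1 = growth at the plate median or of vehicle wells; lower values mean less growth of the strain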
- PARTICULARS: S. cerevisiae deletion strains, growth OD, locus YKR091W, strain srl3, hits give low values
The whole screen tested about 5,500 compounds, of which about 2,000 (36%) were called active. Inconclusive results (about 18%) are left out. This is one part of the list.
EXPERIMENTAL ENDPOINT: normalized growth

1) NC(=O)N/N=C\c1ccc([N+](=O)[O-])o1    0.991 (inactive)
2) C[C@H](COc1ccccc1)N[C@H](C)[C@H](O)c1ccc(O)cc1    0.995 (inactive)
3) NC(=O)c1cc[n+](CC2=C(C(=O)O)N3C(=O)C(NC(=O)C(c4ccccc4)S(=O)(=O)[O-])C3SC2)cc1 (stereo unspecified)    1.01 (inactive)
4) CC1(C)O[C@@H]2CC3C4CCC5=CC(=O)C=C[C@]5(C)C4[C@@H](O)C[C@]3(C)[C@]2(C(=O)CO)O1 (stereo partly specified)    1.01 (inactive)
5) O=C1CN(/N=C\c2ccc([N+](=O)[O-])o2)C(=O)N1    0.979 (inactive)
6) O=C1N=C(O)CN1/N=C\c1ccc(-c2ccc([N+](=O)[O-])cc2)o1    0.98 (inactive)
7) C[C@@H]1CC2C3CCC4=CC(=O)C=C[C@]4(C)[C@@]3(F)[C@@H](O)C[C@]2(C)[C@@]1(O)C(=O)COP(=O)(O)O (stereo partly specified)    0.982 (inactive)
8) Nc1nccs1    0.998 (inactive)
9) CC[C@@H]1[C@@H](O)N2C3C[C@H]1C1C(O)[C@]4(C[C@@H]12)c1ccccc1N(C)[C@@H]34 (stereo partly specified)    1.03 (inactive)
10) COc1ccc(CN(CCN(C)C)c2ncccn2)cc1    1 (inactive)
11) CC(=O)O[C@H]1C[C@@H](OC(C)=O)C(C)(C)C2C[C@@H](OC(C)=O)[C@]3(C)C(CC[C@@]4(C)[C@H](c5ccoc5)C(=O)[C@H]5O[C@]543)[C@]21C (stereo partly specified)    0.995 (inactive)
12) CC12CCC(CC1)C(C)(C)O2    0.993 (inactive)
13) COc1ccc(/C=C/c2cc(O)cc(O)c2)cc1    1 (inactive)
14) COc1ccc2c(c1O)-c1c(OC)c(OC)cc3c1[C@H](C2)N(C)CC3    0.975 (inactive)
15) CC(=O)OCC(=O)[C@@]12OC(C)(C)O[C@@H]1CC1C3C[C@H](F)C4=CC(=O)C=C[C@]4(C)[C@@]3(F)[C@@H](O)C[C@@]12C (stereo partly specified)    1.02 (inactive)
16) CN1CCc2cccc3c2C1Cc1ccc(O)c(O)c1-3 (stereo unspecified)    0.993 (inactive)
17) N[C@@H](CCC(=O)N[C@@H](CCSC(CC(=O)O)C(=O)O)C(=O)NCC(=O)O)C(=O)O (stereo partly specified)    1 (inactive)
18) COP(=S)(OC)Oc1ccc(SC)c(C)c1    0.995 (inactive)
19) COS(C)(=O)=O    0.993 (inactive)
20) NCCCCN=C(N)N    1.02 (inactive)
21) CCCCC(CC)CN=C(N)NC(N)=NCCCCCCN=C(N)NC(N)=NCC(CC)CCCC (stereo unspecified)    0.0594 (active)

====

- EXPERIMENT DESCRIPTION: chemical genetic growth profiling, strain panel (AID 1159580);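 further: tested at 20 µM; growth read once vehicle control cultures reached saturation at 30 °C; 1 = growth at the plate median or of vehicle wells; lower values mean less growth of the strain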
- PARTICULARS: S. cerevisiae deletion strains, growth OD, locus YBR009C, strain hhf1
Screen size: about 5,500 compounds; about 2,000 (36%) were called active. Another 18% or so got no clear call; they are omitted. Cut-off read from the data, not from the text of the source: active = normalized growth mostly below about 0.91 (no sharp cut-off); inconclusive = no clear call, values can overlap the other calls; inactive = mostly above about 0.92. Some of the results follow.
Possible outcomes: active, inactive

1) COc1ccc(C[C@H](N)C(=O)N[C@@H]2[C@@H](CO)OC(n3cnc4c(N(C)C)ncnc43)[C@@H]2O)cc1 (some centres not stated)    inactive
2) CCCN(CCC)CCc1cccc2c1CC(=O)N2    inactive
3) O=C(NC(Cc1cc(=O)[nH]c2ccccc12)C(=O)O)c1ccc(Cl)cc1 (configuration not stated)    inactive
4) CCn1cc(C(=O)O)c(=O)c2cnc(N3CCNCC3)nc21    inactive
5) CC[C@@H](C(=O)[C@@H](C)[C@@H](O)[C@H](C)[C@@H]1O[C@@H]([C@@H](CC)C(=O)O)CC[C@@H]1C)[C@H]1OC2(C=C[C@@H](O)[C@]3(CC[C@@](C)([C@H]4CC[C@](O)(CC)[C@H](C)O4)O3)O2)[C@H](C)C[C@@H]1C (some centres not stated)    active
6) CC1(C)O[C@@H]2CC3C4CCC5=CC(=O)C=C[C@]5(C)C4[C@@H](O)C[C@]3(C)[C@]2(C(=O)CO)O1 (some centres not stated)    inactive
7) CC(Cc1ccc(O)c(O)c1)(NN)C(=O)O (configuration not stated)    inactive
8) CN1CCc2cccc3c2C1Cc1ccc(O)c(O)c1-3 (configuration not stated)    inactive
9) Oc1ccc(/C=C/c2cc(O)cc(O)c2)cc1    inactive
10) CC(=O)O[C@H]1CC[C@@]2(C)C(=CCC3C2CC[C@]2(C)C(=O)CCC32)C1 (some centres not stated)    inactive
11) CC1=CC(=O)CC(C)(C)C1(O)/C=C/C(C)=C\C(=O)O (configuration not stated)    inactive
12) CCOC(=O)C(C)(N)Cc1ccc(O)c(O)c1 (configuration not stated)    inactive
13) NC(=O)c1ccc(N)nc1    inactive
14) C[C@@H]1CC2C3CCC4=CC(=O)C=C[C@]4(C)[C@@]3(F)[C@@H](O)C[C@]2(C)[C@@]1(O)C(=O)COP(=O)(O)O (some centres not stated)    inactive
15) CCN(CC)CCOC(=O)C(Cc1cccc2ccccc12)CC1CCCO1 (configuration not stated)    inactive
16) NC(=O)c1cc[n+](CC2=C(C(=O)O)N3C(=O)C(NC(=O)C(c4ccccc4)S(=O)(=O)[O-])C3SC2)cc1 (configuration not stated)    inactive
17) O=C(NC(=O)c1c(F)cccc1F)Nc1cc(Cl)c(OC(F)(F)C(F)C(F)(F)F)cc1Cl (configuration not stated)    inactive
18) C[C@](N)(Cc1ccc(O)c(O)c1)C(=O)O    inactive
19) C=CC1=C(C)/C(=C/c2[nH]c(Cc3[nH]c(/C=C4\NC(=O)C(C)=C4C=C)c(C)c3CCC(=O)O)c(CCC(=O)O)c2C)NC1=O    inactive
20) NCCCCN=C(N)N    inactive
21) O=C(O)c1cc(=O)c(O)c2c(O)c(O)c(O)cc2c1    active
22) CCC(COC(=O)c1cc(OC)c(OC)c(OC)c1)(c1ccccc1)N(C)C (configuration not stated)    inactive
23) CCCc1cc(OC)c2c(c1)OCO2    inactive
24) CS(=O)(=O)OCCCCOS(C)(=O)=O    active
25) CC[C@]12CCCN3CCc4c(n(c5ccccc45)[C@](O)(C(=O)OC)C1)[C@@H]32    inactive
26) O=C(O)CNCP(=O)(O)O    inactive
27) CCOC(=O)C1=C[C@]2(CC)CCCN3CCc4c(n1c1ccccc41)[C@@H]32    inactive
28) CC(=O)O[C@H]1CC[C@@]2(C)C(=CCC3C2CC[C@@]2(C)C3CC[C@@H]2C(C)CCCC(C)C)C1 (some centres not stated)    inactive
29) COc1cc(/C=C/C(=O)O)ccc1O    inactive
30) NC(=O)c1cnccn1    inactive
31) O=C(O)CCCCC1SCC2NC(=O)NC21 (configuration not stated)    inactive
32) COc1ccccc1OCC(O)CN1CCN(CC(=O)Nc2c(C)cccc2C)CC1 (configuration not stated)    inactive
33) CCOC(=O)c1ccc(N)cc1    inactive
34) CC12CCCC(O)(C1)C1CC(C)(C)C1CC2 (configuration not stated)    inactive
35) CC1(C)CC2C1CCC1(C)OC1CCC2(C)O (configuration not stated)    inactive
36) O=C(O)c1cc(=O)c(O)c2c(O)c(O)ccc2c1    inactive
37) COc1ccc(-c2cc(C(F)F)nn2-c2ccc(S(N)(=O)=O)cc2)cc1F    inactive
38) COc1ccc(C=CC(=O)c2ccc(O)cc2O)cc1OC    active
39) COc1ccc2c(c1O)-c1c(OC)c(OC)cc3c1[C@H](C2)N(C)CC3    inactive
40) O=C(/C=C/c1ccc(O)c(O)c1)O[C@@H]1C[C@](O)(C(=O)O)C[C@@H](O)[C@H]1O    inactive
41) CC(=O)OCC(=O)[C@@]12OC(C)(C)O[C@@H]1CC1C3C[C@H](F)C4=CC(=O)C=C[C@]4(C)[C@@]3(F)[C@@H](O)C[C@@]12C (some centres not stated)    inactive
42) CCOC(=O)CCCCCCCCCCCCC1C=CCC1 (configuration not stated)    inactive
